- System: Staphylococcus aureus MW2 delta-mecA (mecA-)
- procedureDetails: normalized GFP fluorescence (growth of mecA- strain) (fraction of control range); higher = more growth of mecA- strain
- protocolConditions: compound concentration: 150 uM; cefoxitin: subinhibitory; fluorescent label: GFP
Where a name gives a salt, the structure may show the parent alone.
measuredEndpoint: normalized GFP fluorescence
The answer should be written as a number, with no unit following it.

Worked examples follow.
C[C@@H](c1ncncc1F)[C@](O)(Cn1cncn1)c1ccc(F)cc1F :: 0.309
CCCC(=O)Nc1ccc(OCC(O)CNC(C)C)c(C(C)=O)c1 (stereo not drawn) :: 0.332
C=C1/C(=C\C=C2/CCC[C@]3(C)[C@@H]([C@H](C)CCCC(C)(C)O)CC[C@@H]23)C[C@@H](O)C[C@@H]1O [Calcitriol (Rocaltrol)] :: -0.00685
CNC1(C)C2CCC(C2)C1(C)C (stereo not drawn) :: 0.71
Cc1ccccc1C(=O)Nc1ccc(C(=O)N2CCCC(O)c3cc(Cl)ccc32)c(C)c1 (stereo not drawn) :: 0.188

Q) Quick one: normalized GFP fluorescence for `CC(=O)/N=c1/sc(S(N)(=O)=O)nn1C` ?
A) 0.574

Q) Given the entry `CN[C@@H]1[C@H](O[C@H]2[C@H](O[C@H]3[C@H](O)[C@@H](O)[C@H](NC(=N)N)[C@@H](O)[C@@H]3NC(=N)N)O[C@@H](C)[C@]2(O)CO)O[C@@H](CO)[C@H](O)[C@H]1O` , report its measured normalized GFP fluorescence.
A) 0.292

Q) Tell me the measured normalized GFP fluorescence of COc1cc2/c(=N/c3ccc(Br)cc3F)nc[nH]c2cc1OCC1CCN(C)CC1 [Vandetanib (Zactima)] , please.
A) 0.22

Q) // normalized GFP fluorescence lookup, key: `Clc1ccc2c(c1)CCc1cccnc1C2=C1CCNCC1`
A) 0.102

Q) Quick check: normalized GFP fluorescence of `O=C1Cc2cc(CCN3CCN(c4nsc5ccccc45)CC3)c(Cl)cc2N1` ?
A) 0.33

Q) // normalized GFP fluorescence lookup, key: CCN1C(=O)NC(c2ccccc2)C1=O (stereo not drawn)
A) 0.469

Q) Requested field: normalized GFP fluorescence. Item: `CC(=O)NS(=O)(=O)c1ccc(N)cc1`
A) 0.792

Q) May I ask what normalized GFP fluorescence has been recorded for CCCCOc1cc(C(=O)NCCN(CC)CC)c2ccccc2n1 [Dibucaine (Cinchocaine) HCl] ?
A) 0.265

Q) Recorded normalized GFP fluorescence for `Nc1nc(NC2CC2)c2ncn([C@H]3C=C[C@@H](CO)C3)c2n1` , please?
A) 0.288

Q) Look up normalized GFP fluorescence: CCCC1O[C@@H]2C[C@H]3[C@@H]4CCC5=CC(=O)C=C[C@]5(C)[C@H]4[C@@H](O)C[C@]3(C)[C@]2(C(=O)CO)O1 (stereo partly drawn)
A) 0.226

Q) Returns the measured normalized GFP fluorescence for the input compound. Input: `CO[C@H]1O[C@@H]2O[C@@]3(C)CC[C@H]4[C@H](C)CC[C@@H]([C@H]1C)[C@@]24OO3`
A) 0.327

Q) So what's the measured normalized GFP fluorescence for this one? CC(C)OC(=O)OCOP(=O)(CO[C@H](C)Cn1cnc2c(N)ncnc21)OCOC(=O)OC(C)C [Tenofovir Disoproxil Fumarate]
A) 0.238

Q) What value of normalized GFP fluorescence has been reported for the following compound? Nc1ccn(C[C@@H](CO)OCP(=O)(O)O)c(=O)n1 [Cidofovir (Vistide)]
A) 0.408

Hey, just so you know, these numbers are from the supplement of paper PMC7695840.
